# System: 186277-243-T-J2-PDC complex spheroids, viability
# Measurement Description: Anticancer human tumor 186277-243-T-J2-PDC patient-derived colon adenocarcinoma cell line growth inhibition [RAS]
# Study Conditions: second compound 0.01 µM; first compound 0.0316 µM; active compounds read low
Endpoint Label: viability, T/C (%)
// return numeric value only (unit: %, not printed)

Before answering, review these 7 worked examples.
Compound | Test Target | viability, T/C [%]
C[C@@H](NC(=O)c1ncnc(N)c1Cl)c1ncc(C(=O)Nc2cc(C(F)(F)F)c(Cl)cn2)s1 + C=CC(=O)N1CCN(c2nc(OCC3CCCN3C)nc3c(F)c(-c4nc(N)cc(C)c4C(F)(F)F)c(Cl)cc23)C(C)C1 | 186277-243-T-J2-PDC complex spheroids, viability | 80.8
C=CC(=O)Nc1cc(Nc2nccc(-c3cn(C)c4ccccc34)n2)c(OC)cc1N(C)CCN(C)C + C=CC(=O)N1CCN(c2nc(OCC3CCCN3C)nc3c(F)c(-c4nc(N)cc(C)c4C(F)(F)F)c(Cl)cc23)C(C)C1 | 186277-243-T-J2-PDC complex spheroids, viability | 89.8
O=C(c1ccc(F)c(F)c1Nc1ccc(I)cc1F)N1CC(O)([C@@H]2CCCCN2)C1 + C=CC(=O)N1CCN(c2nc(OCC3CCCN3C)nc3c(F)c(-c4nc(N)cc(C)c4C(F)(F)F)c(Cl)cc23)C(C)C1 | 186277-243-T-J2-PDC complex spheroids, viability | 79.2
Cc1nc(N2CCC3(CC2)COC(C)C3N)c(CO)nc1Sc1ccnc(N)c1Cl (stereo not drawn) + C=CC(=O)N1CCN(c2nc(OCC3CCCN3C)nc3c(F)c(-c4nc(N)cc(C)c4C(F)(F)F)c(Cl)cc23)C(C)C1 | 186277-243-T-J2-PDC complex spheroids, viability | 99.8
CCN1CCN(Cc2ccc(Nc3ncc(F)c(-c4cc(F)c5nc(C)n(C(C)C)c5c4)n3)nc2)CC1 + C=CC(=O)N1CCN(c2nc(OCC3CCCN3C)nc3c(F)c(-c4nc(N)cc(C)c4C(F)(F)F)c(Cl)cc23)C(C)C1 | 186277-243-T-J2-PDC complex spheroids, viability | 127
NC1c2ccccc2OC12CCN(c1cnc3c(N4CCCc5ncccc54)n[nH]c3n1)CC2 (stereo not drawn) + C=CC(=O)N1CCN(c2nc(OCC3CCCN3C)nc3c(F)c(-c4nc(N)cc(C)c4C(F)(F)F)c(Cl)cc23)C(C)C1 | 186277-243-T-J2-PDC complex spheroids, viability | 100
CCC(CC)c1cc(NC2CCC(N)C2)n2nccc2n1 (stereo not drawn) + C=CC(=O)N1CCN(c2nc(OCC3CCCN3C)nc3c(F)c(-c4nc(N)cc(C)c4C(F)(F)F)c(Cl)cc23)C(C)C1 | 186277-243-T-J2-PDC complex spheroids, viability | 78

Could you now consider this next compound?
Q: Sample Nc1ccn(C2OC(CO)C(O)C2(F)F)c(=O)n1 (stereo not drawn) + C=CC(=O)N1CCN(c2nc(OCC3CCCN3C)nc3c(F)c(-c4nc(N)cc(C)c4C(F)(F)F)c(Cl)cc23)C(C)C1 — what was its viability, T/C?
Ans: 10.9

###

# Test system: 186277-243-T-J2-PDC complex spheroids, viability
# Measurement Description: Anticancer human tumor 186277-243-T-J2-PDC cell line growth inhibition [RAS]; active = viability on the fitted dose curve at most 10% of control; inactive = the rest;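 further: spheroids exposed to compounds for 7 days before viability read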
# Study Conditions: second compound 1 µM; first compound 0.316 µM
Reply using exactly one outcome from T (active), F (inactive)

Would you please look over these solved cases?
Molecule | Class Label
CC(Nc1ccc2c(c1)OCCn1cc(N3C(=O)OCC3C(F)F)nc1-2)C(N)=O (stereo not given) + C#Cc1c(F)ccc2cc(O)cc(-c3ncc4c(N5CC6CCC(C5)N6)nc(OCC56CCCN5CC(F)C6)nc4c3F)c12 | T
CCC(CC)c1cc(NC2CCC(N)C2)n2nccc2n1 (stereo not given) + C=CC(=O)N1CCN(c2nc(OCC3CCCN3C)nc3c(F)c(-c4nc(N)cc(C)c4C(F)(F)F)c(Cl)cc23)C(C)C1 | F
CCN1CCN(Cc2ccc(Nc3ncc(F)c(-c4cc(F)c5nc(C)n(C(C)C)c5c4)n3)nc2)CC1 + C#Cc1c(F)ccc2cc(O)cc(-c3ncc4c(N5CC6CCC(C5)N6)nc(OCC56CCCN5CC(F)C6)nc4c3F)c12 | F

Q: Test call, this molecule: C[C@@H](NC(=O)c1ncnc(N)c1Cl)c1ncc(C(=O)Nc2cc(C(F)(F)F)c(Cl)cn2)s1 + C=CC(=O)N1CCN(c2nc(OCC3CCCN3C)nc3c(F)c(-c4nc(N)cc(C)c4C(F)(F)F)c(Cl)cc23)C(C)C1
Ans: F

Q: Next: CC(Nc1ccc2c(c1)OCCn1cc(N3C(=O)OCC3C(F)F)nc1-2)C(N)=O (stereo not given) + C=CC(=O)N1CCN(c2nc(OCC3CCCN3C)nc3c(F)c(-c4nc(N)cc(C)c4C(F)(F)F)c(Cl)cc23)C(C)C1
Ans: F

Q: Then what about the molecule C=CC(=O)N1CCN(c2nc(OCC3CCCN3C)nc3c(F)c(-c4nc(N)cc(C)c4C(F)(F)F)c(Cl)cc23)C(C)C1 (stereo not given) + C#Cc1c(F)ccc2cc(O)cc(-c3ncc4c(N5CC6CCC(C5)N6)nc(OCC56CCCN5CC(F)C6)nc4c3F)c12 ?
Ans: F

Q: What do you get for Nc1ccn(C2OC(CO)C(O)C2(F)F)c(=O)n1 (stereo not given) + C#Cc1c(F)ccc2cc(O)cc(-c3ncc4c(N5CC6CCC(C5)N6)nc(OCC56CCCN5CC(F)C6)nc4c3F)c12 ?
Ans: T

Just for reference, PubChem BioAssay AID2060908 is where these values come from.
